For each record, write down the corresponding inhibition.
# Measured on: Epidermal growth factor receptor (Homo sapiens) (UniProt P00533)
# Sequence (P00533 whole entry): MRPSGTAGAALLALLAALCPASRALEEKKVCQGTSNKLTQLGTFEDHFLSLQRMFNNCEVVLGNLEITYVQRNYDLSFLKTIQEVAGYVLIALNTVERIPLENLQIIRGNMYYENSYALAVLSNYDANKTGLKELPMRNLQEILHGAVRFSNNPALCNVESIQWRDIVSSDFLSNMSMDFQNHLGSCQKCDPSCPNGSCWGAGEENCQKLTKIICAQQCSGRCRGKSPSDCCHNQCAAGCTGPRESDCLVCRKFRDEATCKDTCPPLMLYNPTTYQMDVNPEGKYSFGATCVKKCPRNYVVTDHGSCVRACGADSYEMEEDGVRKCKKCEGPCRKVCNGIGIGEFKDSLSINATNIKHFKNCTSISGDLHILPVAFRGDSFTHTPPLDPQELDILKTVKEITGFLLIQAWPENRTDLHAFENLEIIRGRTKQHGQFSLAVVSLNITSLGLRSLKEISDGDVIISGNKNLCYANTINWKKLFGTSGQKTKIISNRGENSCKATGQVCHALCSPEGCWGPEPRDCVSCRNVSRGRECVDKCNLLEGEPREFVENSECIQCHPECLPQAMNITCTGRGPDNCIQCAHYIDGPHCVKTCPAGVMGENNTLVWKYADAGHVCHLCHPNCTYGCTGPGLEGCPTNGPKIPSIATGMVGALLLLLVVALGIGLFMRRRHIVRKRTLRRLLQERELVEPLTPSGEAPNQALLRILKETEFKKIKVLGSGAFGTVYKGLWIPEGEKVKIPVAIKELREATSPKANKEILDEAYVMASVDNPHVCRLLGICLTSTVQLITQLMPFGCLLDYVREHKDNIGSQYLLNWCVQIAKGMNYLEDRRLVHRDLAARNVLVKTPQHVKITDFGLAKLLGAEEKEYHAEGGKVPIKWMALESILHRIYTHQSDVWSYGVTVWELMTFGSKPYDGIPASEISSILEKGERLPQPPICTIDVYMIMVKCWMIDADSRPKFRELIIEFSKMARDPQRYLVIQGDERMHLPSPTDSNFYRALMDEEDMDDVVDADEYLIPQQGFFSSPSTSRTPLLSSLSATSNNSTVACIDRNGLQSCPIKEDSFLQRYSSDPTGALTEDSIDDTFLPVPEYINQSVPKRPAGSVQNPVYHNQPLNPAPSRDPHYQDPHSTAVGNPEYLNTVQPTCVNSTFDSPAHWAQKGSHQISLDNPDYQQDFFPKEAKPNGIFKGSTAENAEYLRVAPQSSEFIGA
# Condition: at 0.1 µM
# Description: GSK_PKIS: EGFR mean inhibition at 0.1 uM [Nanosyn]
Express your answer in %, writing the number without its unit.

Input line: Endpoint output: inhibition of `COc1ccc(COc2ccc(Cc3cnc(N)nc3N)cc2OC)cc1` . Value?
Output line: -0.51

Input line: Moving on to the next compound: `O=C1NC(=O)C(c2ccccc2Cl)=C1Nc1cccc(O)c1`
Output line: 2.49

Input line: Moving on to the next compound: CC1=C(C(=O)Nc2ccc3[nH]ncc3c2)C(c2ccc(F)cc2)NC(=O)N1 (stereo not given)
Output line: -0.6

Input line: Moving on to the next compound: `CCn1c(-c2nonc2N)nc2cnc(Oc3cccc(NC(=O)c4ccc(OCCN5CCOCC5)cc4)c3)cc21`
Output line: 1.37

Input line: Moving on to the next compound: `COc1cc2ncn(-c3cc(O[C@H](C)c4ccccc4Cl)c(C(N)=O)s3)c2cc1OC`
Output line: 3.12

Input line: Moving on to the next compound: `Nc1nc(-c2ccc3c(c2)C(=Cc2cc(Br)c(O)c(Br)c2)C(=O)N3)cs1`
Output line: 0.84

Input line: Moving on to the next compound: `Cc1cc(O)cc(C)c1/C=C/c1cncc(-c2nn[nH]n2)c1`
Output line: -1.53

Input line: Moving on to the next compound: `O=C1NC(=O)C(N2CCc3ccccc32)=C1c1ccc(Cl)cc1`
Output line: -0.66

Input line: Moving on to the next compound: `COc1cc2c(cc1Nc1nc(N3CCc4ccccc43)c3cc[nH]c3n1)N(C(=O)CN(C)C)CC2`
Output line: -0.08

Input line: Moving on to the next compound: `Cc1nn(C)c2cc(N(C)c3ccnc(Nc4cccc(S(N)(=O)=O)c4)n3)ccc12`
Output line: 5.33

###

For each record, write down the corresponding inhibition.
# Measured on: Tyrosine-protein kinase Srms (Homo sapiens) (UniProt Q9H3Y6)
# Sequence (Q9H3Y6 whole entry): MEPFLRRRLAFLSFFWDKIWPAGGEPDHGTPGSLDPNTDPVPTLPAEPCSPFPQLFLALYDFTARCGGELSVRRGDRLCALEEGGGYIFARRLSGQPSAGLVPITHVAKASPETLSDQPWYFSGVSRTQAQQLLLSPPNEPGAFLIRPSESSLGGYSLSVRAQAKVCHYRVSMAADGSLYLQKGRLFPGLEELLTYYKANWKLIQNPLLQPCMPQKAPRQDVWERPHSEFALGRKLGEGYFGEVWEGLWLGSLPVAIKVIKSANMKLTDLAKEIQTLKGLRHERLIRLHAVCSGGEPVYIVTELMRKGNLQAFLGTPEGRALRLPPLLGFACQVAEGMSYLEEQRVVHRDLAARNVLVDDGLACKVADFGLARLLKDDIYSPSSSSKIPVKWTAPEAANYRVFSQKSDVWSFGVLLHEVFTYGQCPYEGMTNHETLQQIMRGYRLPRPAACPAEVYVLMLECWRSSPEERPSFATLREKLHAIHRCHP
# Condition: at 1 µM
# Description: GSK_PKIS: SRMS mean inhibition at 1 uM [Nanosyn]
Express your answer in %, writing the number without its unit.

Input line: Param readout= inhibition; system= Tyrosine-protein kinase Srms (Homo sapiens) (UniProt Q9H3Y6); entry= `COc1cc(C=NNc2ncnc3c2cnn3-c2ccccc2)ccc1O` ; returns value.
Output line: 4.56

Input line: Moving on to the next compound: `NC(=O)c1ccc(-c2nc(-c3ccccn3)c(-c3ccc4c(c3)OCO4)[nH]2)cc1`
Output line: 1.98

Input line: Moving on to the next compound: `NC(=O)c1cccc(Nc2nccc(Nc3cccc4[nH]ncc34)n2)c1`
Output line: 41.9

Input line: Moving on to the next compound: `COc1cc2ncn(-c3cc(OCc4ccccc4C(F)(F)F)c(C(N)=O)s3)c2cc1OC`
Output line: -0.81

Input line: Moving on to the next compound: `Nc1nc(-c2ccccn2)c(-c2ccc3ncccc3n2)s1`
Output line: -2.72

Input line: Moving on to the next compound: `CCn1c(-c2nonc2N)nc2cnc(Oc3cccc(NC(=O)c4ccc(OCCN5CCOCC5)cc4)c3)cc21`
Output line: -0.69

Input line: Moving on to the next compound: `Nc1ncnc2occ(-c3ccc(NC(=O)Nc4cccc(C(F)(F)F)c4)cc3)c12`
Output line: -3.07

Input line: Moving on to the next compound: CC1=C(C(=O)Nc2ccc3[nH]ncc3c2)C(c2ccc(F)cc2)NC(=O)N1 (stereo not drawn)
Output line: 2.69

Input line: Moving on to the next compound: `COc1cc(C)c(NC(=O)CN(C)C)cc1Nc1nc(Nc2cccc(F)c2C(N)=O)c2cc[nH]c2n1`
Output line: 1.18

Input line: Moving on to the next compound: `COc1cc2ncn(-c3cc(O[C@H](C)c4ccccc4Cl)c(C(N)=O)s3)c2cc1OC`
Output line: 6.05

Input line: Moving on to the next compound: `Cc1ccc(NC(=O)c2ccnc(N3CCCC3)c2)cc1-c1ccc(C(=O)NCC2CC2)cc1`
Output line: -4.02

Input line: Moving on to the next compound: `COc1ccc(-c2nn3ncccc3c2-c2ccnc(Nc3ccc(Cl)c(C(F)(F)F)c3)n2)cc1`
Output line: 1.79

Input line: Moving on to the next compound: `COc1ccccc1Nc1ncc(-c2ccccc2)o1`
Output line: 2.11

###

# Measured on: Tyrosine-protein kinase Fyn (Homo sapiens) (UniProt P06241)
# Sequence (P06241 2-537 limits assumed): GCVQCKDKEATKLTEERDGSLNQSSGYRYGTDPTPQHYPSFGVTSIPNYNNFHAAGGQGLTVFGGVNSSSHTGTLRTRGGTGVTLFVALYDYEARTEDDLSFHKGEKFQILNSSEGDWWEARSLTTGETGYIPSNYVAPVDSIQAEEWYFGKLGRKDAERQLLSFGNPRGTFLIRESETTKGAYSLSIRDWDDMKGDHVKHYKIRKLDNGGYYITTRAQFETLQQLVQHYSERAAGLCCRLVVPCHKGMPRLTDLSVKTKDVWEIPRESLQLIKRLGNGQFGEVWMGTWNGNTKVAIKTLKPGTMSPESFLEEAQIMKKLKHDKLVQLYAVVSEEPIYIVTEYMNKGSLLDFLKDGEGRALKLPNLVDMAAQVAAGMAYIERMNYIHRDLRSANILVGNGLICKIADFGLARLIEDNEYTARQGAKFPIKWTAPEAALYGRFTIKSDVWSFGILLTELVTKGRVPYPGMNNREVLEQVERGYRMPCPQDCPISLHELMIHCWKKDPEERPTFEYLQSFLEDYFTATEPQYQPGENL
# Condition: at 0.1 µM
# Description: GSK_PKIS: FYN mean inhibition at 0.1 uM [Nanosyn]
For each record, write down the corresponding inhibition.
Express your answer in %, writing the number without its unit.

Input line: Endpoint output: inhibition of `CS(=O)(=O)CCNCc1ccc(-c2ccc3ncnc(Nc4ccc(OCc5cccc(F)c5)c(C(F)(F)F)c4)c3c2)o1` . Value?
Output line: 1.1

Input line: Moving on to the next molecule: `Fc1cccc(COc2ccc(Nc3ncnc4cc(-c5ccc[nH]5)sc34)cc2Cl)c1`
Output line: -2.98

Input line: Moving on to the next molecule: `CNC(=O)c1cncc(/C=C/c2c(Cl)cccc2Cl)c1`
Output line: 0.89

Input line: Moving on to the next molecule: `Cc1ccc(NC(=O)c2ccnc(N3CCCC3)c2)cc1-c1ccc(C(=O)NCC2CC2)cc1`
Output line: -2.42

Input line: Moving on to the next molecule: `NCc1ccc(-c2nc(-c3ccc(Cl)c(O)c3)c(-c3ccncc3)[nH]2)cc1`
Output line: 5.91

###

For each record, write down the corresponding inhibition.
# Measured on: Phosphatidylinositol 4-kinase beta (Homo sapiens) (UniProt Q9UBF8)
# Sequence (Q9UBF8 2-816 limits assumed): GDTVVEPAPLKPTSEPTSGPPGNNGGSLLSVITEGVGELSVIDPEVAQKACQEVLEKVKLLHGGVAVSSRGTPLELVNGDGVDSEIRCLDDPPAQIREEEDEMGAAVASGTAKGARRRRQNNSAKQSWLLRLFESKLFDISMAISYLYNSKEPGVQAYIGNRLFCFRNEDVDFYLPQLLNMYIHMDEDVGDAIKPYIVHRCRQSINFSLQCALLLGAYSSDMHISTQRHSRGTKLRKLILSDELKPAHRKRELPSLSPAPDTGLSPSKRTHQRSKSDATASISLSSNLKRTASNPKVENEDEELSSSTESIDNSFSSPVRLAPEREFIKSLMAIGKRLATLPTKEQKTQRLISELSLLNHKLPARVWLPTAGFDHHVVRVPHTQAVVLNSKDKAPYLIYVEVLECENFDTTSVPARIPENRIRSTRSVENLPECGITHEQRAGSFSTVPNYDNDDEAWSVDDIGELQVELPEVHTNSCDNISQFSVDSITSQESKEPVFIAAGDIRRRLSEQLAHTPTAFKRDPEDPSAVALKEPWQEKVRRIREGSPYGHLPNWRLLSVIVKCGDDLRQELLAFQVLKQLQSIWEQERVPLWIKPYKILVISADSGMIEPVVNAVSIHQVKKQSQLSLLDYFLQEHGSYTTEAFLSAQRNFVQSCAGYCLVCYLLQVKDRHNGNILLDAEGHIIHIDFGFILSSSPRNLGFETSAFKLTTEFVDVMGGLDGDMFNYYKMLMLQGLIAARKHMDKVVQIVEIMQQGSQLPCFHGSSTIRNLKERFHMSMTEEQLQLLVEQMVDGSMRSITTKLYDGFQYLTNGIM
# Condition: at 0.1 µM
Express your answer in %, writing the number without its unit.

Input line: Endpoint output: inhibition of `N#Cc1c(NC(=O)c2cccc3ccccc23)sc2c1CCCC2` . Value?
Output line: -2.84

Input line: Moving on to the next compound: `Cc1ccc(C(=O)NC2CCCCC2)cc1-c1ccc(C(=O)NCC2CC2)cc1`
Output line: 3.97

Input line: Moving on to the next compound: `Fc1cccc(COc2ccc(Nc3ncnc4cc(-c5ccc[nH]5)sc34)cc2Cl)c1`
Output line: -8.05

Input line: Moving on to the next compound: `COc1ccc(COc2ccc(Cc3cnc(N)nc3N)cc2OC)cc1`
Output line: 2.15

Input line: Moving on to the next compound: `CS(=O)(=O)Nc1ccc(N/C=C2\C(=O)Nc3ccccc32)cc1`
Output line: -4.55

Input line: Moving on to the next compound: CC1=C(C(=O)Nc2ccc3[nH]ncc3c2)C(c2ccc(Cl)c(Cl)c2)CC(=O)N1 (stereo not given)
Output line: 0.44

Input line: Moving on to the next compound: `CCn1c(-c2nonc2N)nc2c(C#CC(C)(C)O)nc(OC[C@@H](N)c3ccccc3)cc21`
Output line: 0.16

Input line: Moving on to the next compound: COc1ccc2cc(-c3c(-c4ccncc4)nc(-c4ccc([S+](C)[O-])cc4)n3C)ccc2c1 (stereo not given)
Output line: -2.02

Input line: Moving on to the next compound: `COC(=O)Nc1nc2cc(Oc3ccc(NC(=O)Nc4cccc(C(=O)O)c4)cc3)ccc2[nH]1`
Output line: 2.72

Input line: Moving on to the next compound: `CS(=O)(=O)CCNCc1ccc(-c2ccc3ncnc(Nc4ccc(OCc5ccccc5)c(Cl)c4)c3c2)o1`
Output line: -0.03

Input line: Moving on to the next compound: `COc1cc(C=NNc2ncnc3c2cnn3-c2ccccc2)ccc1O`
Output line: -0.81

Input line: Moving on to the next compound: `Cn1cc(C=C2C(=O)Nc3cccnc32)c2ccccc21`
Output line: 0.42

Input line: Moving on to the next compound: `CCCN1CCC=C(c2ccc(Nc3nc(Nc4ccccc4C(N)=O)c4cc[nH]c4n3)c(C)c2)C1`
Output line: -1.7

Input line: Moving on to the next compound: `CCc1cccc(NC(=O)Nc2ccc(Oc3ccc4nc(NC(=O)OC)[nH]c4c3)cc2)c1`
Output line: 5.24

Input line: Moving on to the next compound: CC1=C(C(=O)Nc2ccc3[nH]ncc3c2)C(c2ccc(F)cc2)NC(=O)N1 (stereo not given)
Output line: 1.44

Input line: Moving on to the next compound: `CCn1c(-c2nonc2N)nc2cnc(Oc3cccc(NC(=O)c4ccc(OCCN5CCOCC5)cc4)c3)cc21`
Output line: -7.57

Input line: Moving on to the next compound: `Nc1ncnc2occ(-c3ccc(NC(=O)Nc4cccc(C(F)(F)F)c4)cc3)c12`
Output line: -1.39

Input line: Moving on to the next compound: `NCc1ccc(-c2nc(-c3ccc(Cl)c(O)c3)c(-c3ccncc3)[nH]2)cc1`
Output line: -3.9

Input line: Moving on to the next compound: `Nc1nc(-c2ccccn2)c(-c2ccc3ncccc3n2)s1`
Output line: 4.8

Input line: Moving on to the next compound: `O=C1NC(=O)C(N2CCc3ccccc32)=C1c1ccc(Cl)cc1`
Output line: -1.76

###

# Measured on: Hepatocyte growth factor receptor (Homo sapiens)
# Condition: at 1 µM
For each record, write down the corresponding inhibition.
Express your answer in %, writing the number without its unit.

Input line: Param readout= inhibition; system= Hepatocyte growth factor receptor (Homo sapiens); entry= `CS(=O)(=O)CCNCc1ccc(-c2ccc3ncnc(Nc4ccc(OCc5cccc(F)c5)c(C(F)(F)F)c4)c3c2)o1` ; returns value.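 Further: each value is an averaged inhibition figure for MET, taken as the mean across measurements.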
Output line: 3.55

Input line: Moving on to the next compound: `CC(C)=Cc1cccc2c1/C(=N/Nc1ccc(S(N)(=O)=O)cc1)C(=O)N2`
Output line: 19.6

Input line: Moving on to the next compound: `CCc1cccc(NC(=O)Nc2ccc(Oc3ccc4nc(NC(=O)OC)[nH]c4c3)cc2)c1`
Output line: 27.4

Input line: Moving on to the next compound: `Cc1nnc(-c2ccc(C)c(-c3ccc(C(=O)Nc4cccc(C#N)c4)cc3)c2)o1`
Output line: -0.54

Input line: Moving on to the next compound: `CNC(=O)c1cncc(/C=C/c2c(Cl)cccc2Cl)c1`
Output line: 1.88

Input line: Moving on to the next compound: `NS(=O)(=O)c1cccc(-c2ccc3c(NC(=O)C4CC4)n[nH]c3c2)c1`
Output line: 3.16

Input line: Moving on to the next compound: `COc1cc(C)c(NC(=O)CN(C)C)cc1Nc1nc(Nc2cccc(F)c2C(N)=O)c2cc[nH]c2n1`
Output line: -1.66

Input line: Moving on to the next compound: `Nc1nc(-c2ccccn2)c(-c2ccc3ncccc3n2)s1`
Output line: 9.52

Input line: Moving on to the next compound: `COc1ccc(-c2coc3ncnc(N)c23)cc1`
Output line: 6.47

Input line: Moving on to the next compound: `Fc1cccc(COc2ccc(Nc3ncnc4cc(-c5ccc[nH]5)sc34)cc2Cl)c1`
Output line: 4.48
